// data source = patent US20260285853A1

# System: HTT mRNA
# protocol.description: Gene panel canonical junction qPCR assay, decrease in CJ mRNA, Table 3
# Type: cell-based
# stated.conditions: decrease in CJ mRNA levels, canonical junction qPCR, gene panel
pIC50: −log10 of the molar value. Where a name gives a salt, the structure may show the parent alone.
Here, each record is paired with measured pIC50 data.
readout.type: pIC50

>>> result("CNC1CN(c2ccc(C(=O)Nc3cc(F)c4nn(C)cc4c3)c3nc(OC)sc23)C1")
"6.00 to 7.00"
>>> result("CN[C@@H]1CCN(c2ccc(C(=O)Nc3cc(F)c4nn(C)cc4c3)c3nc(OC)sc23)C1")
"6.00 to 7.00"
>>> result("COc1c(NC(=O)c2ccc(N3CCC(NC4CC4)CC3)n3cc(C)nc23)cn2cc(C)nc(C)c12")
"5.00 to 6.00"
>>> result("Cc1cn2cc(NC(=O)c3ccc(N4CCC(NC5CC5)CC4)c4cn(C)nc34)nc2c(CCN(C)C)n1")
"< 5.00"
>>> result("COc1nc2c(C(=O)Nc3cc4cn(C)nc4nc3OC)ccc(N3C[C@H](C)N[C@@H](C)C3)c2s1")
"< 5.00"
>>> result("Cn1cc2cc(NC(=O)c3ccc(N4CCC(NC5CC5)CC4)c4cn(C)nc34)cc(CN3CCCS3(=O)=O)c2n1 [Compound 818, hydrochloride]")
"< 5.00"
>>> result("CCNC1(C)CCN(c2ccc(C(=O)Nc3cn4cc(C)nc(CNS(C)(=O)=O)c4n3)c3nn(C)cc23)CC1")
"< 5.00"
>>> result("C[C@H]1CN(c2ccc(C(=O)Nc3cc(F)c4nn(C)cc4c3)c3nc(CNS(C)(=O)=O)sc23)C[C@H](C)N1")
"6.00 to 7.00"
>>> result("Cc1cn2cc(NC(=O)c3ccc(N4C[C@@H](C)N[C@@H](C)C4)c4c3OC(C)(C)O4)cc(F)c2n1")
"< 5.00"
>>> result("COc1nc2c(C(=O)Nc3cc(F)c4nn(C)cc4c3)ccc(N3CCNC(C)C3C)c2s1 (stereo not drawn)")
"5.00 to 6.00"
>>> result("CNC1CCN(c2ccc(C(=O)Nc3cn4cc(C)nc(CNS(C)(=O)=O)c4n3)c3nn(C)cc23)C1 (stereo not drawn)")
"6.00 to 7.00"
>>> result("CNCC1CN(c2ccc(C(=O)Nc3cn4cc(C)nc(CNS(C)(=O)=O)c4n3)c3nn(C)cc23)C1")
"< 5.00"
>>> result("CCNC1CCN(c2ccc(C(=O)Nc3cc(CNS(C)(=O)=O)c4nn(C)cc4c3)c3nn(C)cc23)CC1")
"5.00 to 6.00"
>>> result("COc1nc2c(C(=O)Nc3cc(F)c4nn(C)cc4c3)ccc(N3C[C@H](C)NC4(CC4)C3)c2s1")
"< 5.00"
>>> result("Cn1cc2cc(NC(=O)c3ccc(N4CCC(NC5CC5)CC4)c4cn(C)nc34)cc(CNc3cn[nH]c3)c2n1")
"< 5.00"

* * *

# Tested on: MYB mRNA
# protocol.description: Gene panel canonical junction qPCR assay, decrease in CJ mRNA, Table 3
# Format: cell-based
# stated.conditions: decrease in canonical junction (CJ) mRNA, gene panel qPCR, Table 3
pIC50: −log10 of the molar value. Counter-ions that a name gives are not always drawn.
Here, each record is paired with measured pIC50 data.
readout.type: pIC50

>>> result("CCNC1(C)CCN(c2ccc(C(=O)Nc3cn4cc(C)nc(C)c4c3F)c3nn(C)cc23)CC1")
"5.00 to 6.00"
>>> result("Cc1cn2cc(NC(=O)c3ccc(N4CC[C@@H]5CNCC[C@@H]54)c4cn(C)nc34)cc(F)c2n1 (stereo in doubt) [Compound 101, hydrochloride]")
"6.00 to 7.00"
>>> result("CCNC1CCN(c2cc(F)c(C(=O)Nc3cc4c(C)nc(C)cn4n3)c3nn(C)cc23)CC1")
"< 5.00"
>>> result("Cc1cn2cc(NC(=O)c3ccc(C4CCC(NC5CC5)CC4)c4cn(C)nc34)cc(F)c2n1 (stereo not shown)")
"6.00 to 7.00"
>>> result("COc1cc2nn(C)cc2cc1NC(=O)c1ccc(N2CCNC(C)CC2)c2cn(C)nc12 (stereo not shown)")
"6.00 to 7.00"
>>> result("CCN[C@H]1CCN(c2cc(O)c(C(=O)Nc3cc(F)c4nc(C)cn4c3)c3nn(C)cc23)C1")
"> 7.00"
>>> result("COc1cc2nn(C)cc2cc1NC(=O)c1ccc(N2CC3CNCC3C2)c2cn(C)nc12 (stereo not shown)")
"6.00 to 7.00"
